The reported numbers originate from patent US20160145247A1.

# ASSAYED SYSTEM: factor D (Homo sapiens, UniProt P00746)
# Construct: made in house; host or cells: E. coli
# Sequence (P00746 26-253): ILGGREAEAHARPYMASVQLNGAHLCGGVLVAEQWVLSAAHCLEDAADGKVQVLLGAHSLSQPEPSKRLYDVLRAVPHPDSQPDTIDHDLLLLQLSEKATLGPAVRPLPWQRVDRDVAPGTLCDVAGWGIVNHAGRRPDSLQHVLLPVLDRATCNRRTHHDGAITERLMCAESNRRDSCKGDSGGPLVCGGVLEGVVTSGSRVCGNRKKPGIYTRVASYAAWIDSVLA
# PROTOCOL SUMMARY: factor D inhibition assay of Biological Example 2
# Format: biochemical
pIC50: −log10 of the molar value.
PROPERTY LABEL: pIC50

Please review the following examples before continuing.
SMILES TEXT | PROPERTY LABEL | REPORTED
NCc1cccc(-c2cccc(COc3ccccc3CC(=O)O)n2)c1 | pIC50 | 5.95
N[C@H](CF)c1cccc(-c2cc(CNCC(F)(F)F)cc(COc3ccccc3CC(=O)O)c2)c1 | pIC50 | 6.64
NCc1cccc(-c2cc(CCC3CC3)cc(COc3ccccc3CC(=O)O)c2)c1 | pIC50 | 8.70
CNC(=O)c1cc(C(=O)Nc2ccccc2CC(=O)O)cc(-c2cccc(CN)c2)c1 | pIC50 | 6.61
C[C@@H](N)c1cccc(-c2cc(N)c(F)c(COc3ccccc3CC(=O)O)c2)c1F | pIC50 | 8.22

P: COCc1cc(COc2ccccc2CC(=O)O)cc(-c2cccc([C@@H](C)N)c2)c1
Q: C[C@@H](N)c1cccc(-c2cc(COc3ccccc3CC(=O)O)cc(NC[C@H]3CCCO3)c2)n1
(Q) Select one. Lower pIC50: P or Q Select an item and report its label.
(A) Q
(Q: 7.80, P: 8.52)

----------
# ASSAYED SYSTEM: factor D (Homo sapiens, UniProt P00746)
# Construct: made in house; host or cells: E. coli
# PROTOCOL SUMMARY: factor D inhibition assay of Biological Example 2
# Format: biochemical
pIC50: −log10 of the molar value.
PROPERTY LABEL: pIC50

Look over these answered cases.
MOLECULE | ASSAYED SYSTEM | PROPERTY LABEL | REPORTED
NCc1cccc(-c2cc(O)cc(C(=O)Nc3ccccc3CC(=O)O)c2)c1 | factor D (Homo sapiens, UniProt P00746) | pIC50 | 7.02
C[C@@H](N)c1cccc(-c2cc(COc3ccccc3CC(=O)O)ccc2F)c1 | factor D (Homo sapiens, UniProt P00746) | pIC50 | 7.00
CCOc1cc(COc2ccccc2CC(=O)O)cc(-c2cccc([C@@H](C)N)c2F)c1 | factor D (Homo sapiens, UniProt P00746) | pIC50 | 8.52
C[C@@H](N)c1cccc(-c2cc(CNCC(F)(F)F)cc(COc3ccccc3CC(=O)O)c2)c1F | factor D (Homo sapiens, UniProt P00746) | pIC50 | 7.24
C[C@@H](N)c1cccc(-c2cc(COc3ccccc3CC(=O)O)cc(OCC3CCCCO3)c2)c1 (some centres unmarked) | factor D (Homo sapiens, UniProt P00746) | pIC50 | 8.15

A: C[C@@H](N)c1cccc(-c2cc(CCCF)cc(COc3ccccc3CC(=O)O)c2)c1F
B: NCc1cc(F)cc(-c2cccc(C(=O)Nc3ccccc3CC(=O)O)c2)c1
(Q) Kindly identify the item with the lower pIC50 figure among these two: A and B Mark your selection by writing its label.
(A) B

----------
# ASSAYED SYSTEM: factor D (Homo sapiens, UniProt P00746)
# Construct: made in house; host or cells: E. coli
# PROTOCOL SUMMARY: factor D inhibition assay of Biological Example 2
# Type: biochemical
pIC50: −log10 of the molar value.
PROPERTY LABEL: pIC50

MOLECULE | ASSAYED SYSTEM | pIC50
N[C@H](CO)c1cccc(-c2cc(COc3ccccc3CC(=O)O)cc(C(O)C3CCCCC3)c2)c1 (single isomer, unassigned) [116-I b) (tr = 4.0 min)] | factor D (Homo sapiens, UniProt P00746) | 7.59

1: CCOCc1cc(COc2ccccc2CC(=O)O)cc(-c2cccc([C@@H](C)N)c2F)c1 [Example 120-Q]
2: CCOC(=O)Cc1ccccc1OCc1cc(NC[C@H]2CCCO2)cc(-c2cccc([C@@H](C)N)c2F)c1 [Example 249]
3: N#Cc1ccc(COc2ccccc2CC(=O)O)cc1-c1cccc(CN)c1 [Example 289]
(Q) Please list these molecules in decreasing order of pIC50. Note for the reader: the ranking is given by listing the labels in the order requested.
(A) 1, 3, 2

----------
# ASSAYED SYSTEM: factor D (Homo sapiens)
# Construct: made in house; host or cells: E. coli
# PROTOCOL SUMMARY: factor D inhibition assay of Biological Example 2
# Format: biochemical
pIC50: −log10 of the molar value.
PROPERTY LABEL: pIC50

Solved cases (5 shown):
MOLECULE | REPORTED
N[C@H](CO)c1cccc(-c2cccc(COc3ccccc3CC(=O)O)c2)n1 [Example 138-K] | 7.35
NCc1cc(F)cc(-c2cccc(C(=O)Nc3c(Br)cccc3CC(=O)O)n2)c1 [Example 21-E] | 7.07
N[C@H](CO)c1cc(-c2cccc(COc3ccccc3CC(=O)O)c2)ccn1 [Example 142-G] | 7.92
C[C@@H](N)c1cccc(-c2cc(COc3ccccc3CC(=O)O)cc(NCC(F)F)c2)c1F [Example 216-M] | 7.89
C[C@@H](N)c1cccc(-c2cc(CCC3CCCN3)cc(COc3ccccc3CC(=O)O)c2)c1F (stereo partly shown) [Example 238] | 7.64

a: C[C@H](O)[C@@H](N)c1cccc(-c2cccc(COc3ccccc3CC(=O)O)c2)c1 [Example 190-D]
b: N[C@H](CCF)c1cccc(-c2cc(Cl)cc(COc3ccccc3CC(=O)O)c2)c1 [Example 279-B]
(Q) I'd appreciate it if you could identify which of a and b has the greater pIC50. Answer by quoting the chosen item's label.
(A) b

a: CCC[C@@H](N)c1cccc(-c2cc(COc3ccccc3CC(=O)O)cc(NCC3CC3)c2)c1F [Example 199-B]
b: C[C@@H](N)c1cccc(-c2cc(COc3ccccc3CC(=O)O)cc(N(C)CC3CCCO3)c2)c1F (stereo partly shown) [Example 216-G]
c: CCC[C@@H](N)c1cccc(-c2cc(COc3ccccc3CC(=O)O)cc(C3CC3)c2)c1F [Example 202-B]
(Q) Please list these in order of increasing pIC50. Thank you! As an answer, provide the labels arranged in the order called for.
(A) a, c, b

----------
# ASSAYED SYSTEM: factor D (Homo sapiens, UniProt P00746)
# Construct: made in house; host or cells: E. coli
# PROTOCOL SUMMARY: factor D inhibition assay of Biological Example 2
# Format: biochemical
PROPERTY LABEL: IC50 (nM)

MOLECULE | ASSAYED SYSTEM | UNIT ABBREVIATION | IC50
NCc1cccc(-c2cccc(COc3ccc(Br)cc3CC(=O)O)c2)c1 [Example 168] | factor D (Homo sapiens, UniProt P00746) | nM | 27

P: N[C@H](CO)c1cccc(-c2cc(COc3ccccc3CC(=O)O)cc(C(=O)N[C@H]3CCOc4ccccc43)c2)c1 [Example 287-G]
Q: C[C@@H](N)c1cccc(-c2cc(Cl)cc(COc3ccccc3CC(=O)O)c2)c1F [Example 216-S]
R: C[C@@H](N)c1cccc(-c2cc(COc3ccccc3CC(=O)O)cc(NC[C@H]3CCCO3)c2)c1F [Example 153]
(Q) Exam item: list the entries in increasing order of IC50. The reply should contain the labels ordered as requested.
(A) R, Q, P
(R: 4 nM, Q: 21 nM, P: 37 nM)

----------
# ASSAYED SYSTEM: factor D (Homo sapiens)
# Construct: made in house; host or cells: E. coli
# PROTOCOL SUMMARY: factor D inhibition assay of Biological Example 2
# Format: biochemical
PROPERTY LABEL: IC50 (nM)

COMPOUND | ASSAYED SYSTEM | PROPERTY LABEL | REPORTED
N[C@H](CO)c1cccc(-c2cc(COc3ccccc3CC(=O)O)cc(C(O)C3CCCCC3)c2)c1 (mixture of isomers) [116-I a)] | factor D (Homo sapiens) | IC50 | 13
C[C@@H](N)c1cccc(-c2cc(COc3ccccc3CC(=O)O)cc(OCc3ccncn3)c2)c1F | factor D (Homo sapiens) | IC50 | 9
Nc1cc(COc2ccccc2CC(=O)O)cc(-c2cccc([C@H](N)CO)c2)c1 | factor D (Homo sapiens) | IC50 | 9
NC1(c2cccc(-c3cccc(C(=O)Nc4ccccc4CC(=O)O)c3)c2)CC1 | factor D (Homo sapiens) | IC50 | 8470
N#CC[C@@H](N)c1cccc(-c2cccc(COc3ccccc3CC(=O)O)c2)c1 | factor D (Homo sapiens) | IC50 | 272
CCC[C@@H](N)c1cccc(-c2cc(CO)cc(COc3ccccc3CC(=O)O)c2)c1 | factor D (Homo sapiens) | IC50 | 83

a: Cc1ccc(CC(=O)O)c(NC(=O)c2cccc(-c3cc(F)cc(CN)c3)c2)c1
b: NCc1cccc(-c2cc(Cl)cc(C(=O)Nc3ccccc3CC(=O)O)n2)c1
c: Cc1cc(Nc2cc(C(=O)Nc3ccccc3CC(=O)O)cc(-c3cc(F)cc(CN)c3)c2)n(C)n1
(Q) Please give the order of these compounds when sorted by IC50, largest value leading. Provide your answer as the labels ordered per the instruction.
(A) b, a, c
(b: 74 nM, a: 47 nM, c: 19 nM)

P: COCCOc1cc(C(=O)Nc2ccccc2CC(=O)O)cc(-c2cccc(CN)c2)c1
Q: NCc1cc(F)cc(-c2cccc(COc3ccccc3CC(=O)O)c2)c1
R: CC(=O)Nc1cc(C(=O)Nc2ccccc2CC(=O)O)cc(-c2cc(F)cc(CN)c2)c1
(Q) Sort these compounds on IC50 so the largest reading comes first. Answer by writing out the labels in the requested order.
(A) Q, P, R

1: NCc1cccc(-c2ccc(-c3cccc(CN)c3)c(C(=O)Nc3ccccc3CC(=O)O)n2)c1
2: N[C@H](CO)c1cccc(-c2cccc(COc3ccccc3CC(=O)O)c2)c1F
(Q) API: POST /compare with 1 and 2 ; response names the item with higher IC50. State your choice using its label.
(A) 1

1: NCc1cccc(-c2ccc(C(F)(F)F)c(COc3ccccc3CC(=O)O)c2)c1
2: CCOc1cc(COc2ccccc2CC(=O)O)cc(-c2cccc([C@@H](C)N)c2)c1
(Q) Between the entries labeled 1 and 2 , whose measured IC50 is lower? Refer to your chosen item by its label in the answer.
(A) 2
(2: 9 nM, 1: 21 nM)

I: NC(CF)c1cccc(-c2cccc(COc3ccccc3CC(=O)O)c2)c1 (single isomer, unassigned; (-)) [Example 190-B (−)]
II: Cc1cc(Nc2cc(C(=O)Nc3ccccc3CC(=O)O)cc(-c3cc(F)cc(CN)c3)c2)[nH]n1
(Q) Higher IC50: I or II ? Response format: the label of the selected entry.
(A) I
